assay: in vivo; settings: female, SD, rat, in vivo, iv, 1.5 mg/kg, Cmax of 100
Endpoint name: Cmax (ng/mL)

| Molecule | Endpoint name | Unit string | Endpoint value |
| --- | --- | --- | --- |
| CN1CCN(C(=O)C2C3CCC(O3)C2C(=O)O)CC1 (stereo not shown) [Compound 100] | Cmax | ng/mL | 3660 |

###

Test: Pharmacokinetic study of 157 (and metabolite endothal) in SD rats, iv and po; plasma, liver, brain
Assay type: in vivo
Settings: female, SD, rat, in vivo, po, 1.5 mg/kg, 157 po 1.5 mg/kg; read-out: AUC of 157 in plasma
Experimental: The blood, liver and brain tissue samples were collected at predetermined times from rats. […] Compound were diluted shortly before use in 4% sodium bicarbonate for sterile injection (this is the standard pediatric solution of NaHCO3 with a pH of about 8.5). Compound 153 was freshly prepared by diluting the drugs shortly before use in 4% sodium bicarbonate for sterile injection (this is the standard pediatric solution of NaHCO3 with a pH of about 8.5). […]

| Compound | Unit string | AUC |
| --- | --- | --- |
| CCCCCCCOC(=O)C1C2CCC(O2)C1C(=O)N1CCN(C)CC1 (stereo not shown) | ng·h/mL | 3.2 |
